// sensor-assay potency score (higher = more potent) lookup, one value per entry
MEASURED_ON: SEMA6D
EXPERIMENT_NOTES: pooled miR-30 sensor sort-seq; sequence = guide strand; note: reference of the scale not given here
MEASUREMENT_CONDITIONS: shRNA
Give the figure by itself; no unit, no explanation.

INSERT INTO assay_data (macromolecule_sequence, measured_on, result_number) VALUES
  ('TATGTCTGTAATAGACTGCAGA', 'SEMA6D', -0.657),
  ('TACTGTATAAACTTGATCCCTG', 'SEMA6D', 0.49),
  ('TTTCTTTCCTTGAAGCTCCATG', 'SEMA6D', -0.704);

// query Missing value: sensor-assay potency score (higher = more potent), SEMA6D, entry TTTTTTTTGACATTTGTGCAAG . Fill in?
// result -0.63

// query Next sequence: TTTAGGAGAATCAATATTCTGT
// result -0.109

// query Next sequence: TTGATTTGTATTATGTCTGTAA
// result 0.267

###

MEASURED_ON: ZFP62
EXPERIMENT_NOTES: pooled miR-30 sensor sort-seq; sequence = guide strand
MEASUREMENT_CONDITIONS: shRNA
// sensor-assay potency score (higher = more potent) lookup, one value per entry
Give the figure by itself; no unit, no explanation.

// query Reported sensor-assay potency score (higher = more potent), sequence TTTGCCACAGACATCACACTTG : ____
// result 0.373

// query Next sequence: TAGAGCGTGAGATATAGGCTTT
// result -0.26

// query Next sequence: TTTCTCTCTAGTGTGGACCCTT
// result -0.0465

// query Next sequence: TTGAGTGTGAGATGTAGGCTTT
// result -0.179

###

MEASURED_ON: MTG1
EXPERIMENT_NOTES: pooled miR-30 sensor sort-seq; sequence = guide strand
MEASUREMENT_CONDITIONS: shRNA
Would you please tag the item Y when its sensor-assay potency score (higher = more potent) is -0.2 or above, and N when it is below?

INSERT INTO measurements (macromolecule_sequence, answer_label) VALUES
  ('TATAGCTTTAACTCCTTCTGAG', 'Y'),
  ('TTGGACATCACAGCTCTGGTGA', 'N'),
  ('TTATAGCTTTAACTCCTTCTGA', 'N');

// query Hi, just wondering whether TTTGTTGAGGGTGTACAGCAGG shows sensor-assay potency score (higher = more potent) of -0.2 or higher.
// result N

// query Next sequence: ATTTTGGACATCACAGCTCTGG
// result N

// query Next sequence: ATCAGTTCAGTGACCATCGGGA
// result N

###

MEASURED_ON: CRB3
EXPERIMENT_NOTES: pooled miR-30 sensor sort-seq; sequence = guide strand
MEASUREMENT_CONDITIONS: shRNA
// sensor-assay potency score (higher = more potent) lookup, one value per entry
Give the figure by itself; no unit, no explanation.

Examples from the recorded data:
INSERT INTO measurements (macromolecule_sequence, result_number) VALUES
  ('ATAGCAGTGATGGCTTCTGGAC', -1.45),
  ('TTGCCATCGGAGCTGGAGCTGG', -1.68),
  ('TATTCTCATTTGCAGAAGTGGT', -1.61),
  ('TTCTCATTTGCAGAAGTGGTCT', -0.965),
  ('TGGACGCAGGTTGCCATCGGAG', -1.88);

// query Reported sensor-assay potency score (higher = more potent), sequence TTGCAGAAGTGGTCTGTATTTG : ____
// result -1.49

// query Next sequence: TTTGAAGTACCTTCTTCCCTGC
// result 0.11

// query Next sequence: AAGACCACGATGATAGCAGTGA
// result -0.0143

// query Next sequence: TGCTCCTCGCTACTGGGCCGGT
// result -1.75

// query Next sequence: TCCGTCTGCCGCTTCTCCCGAA
// result -1.23
